- assayInfo: Iodine content
- Type: physicochemical
measurementName: % Iodine

- O=C(CN(CC(O)CO)C(=O)c1c(I)c(NC(=O)CO)c(I)c(C(=O)NCC(O)CO)c1I)Nc1c(I)c(C(=O)NCC(O)CO)c(I)c(C(=O)NCC(O)CO)c1I (stereo not shown): 50,5%
- COCC(=O)Nc1c(I)c(C(=O)NCC(=O)Nc2c(I)c(C(=O)NC(CO)C(O)CO)c(I)c(C(=O)NC(CO)C(O)CO)c2I)c(I)c(C(=O)NC(CO)C(O)CO)c1I (stereo not shown): 49,5%
- COCC(=O)Nc1c(I)c(C(=O)NCC(O)CO)c(I)c(C(=O)N(C)CC(=O)N(C)c2c(I)c(C(=O)NCC(O)CO)c(I)c(C(=O)NCC(O)CO)c2I)c1I (stereo not shown): 51,6%
- COCC(=O)N(CCO)c1c(I)c(C(=O)NCC(O)CO)c(I)c(C(=O)N(CCO)CC(=O)N(CCO)c2c(I)c(C(=O)NCC(O)CO)c(I)c(C(=O)NCC(O)CO)c2I)c1I (stereo not shown): 48,2%
- O=C(NCC(=O)N(CCO)c1c(I)c(C(=O)NCC(O)CO)c(I)c(C(=O)NCC(O)CO)c1I)c1c(I)c(C(=O)NCC(O)CO)c(I)c(N(CCO)C(=O)CO)c1I (stereo not shown): 50%

Return value of % Iodine for input CN(CC(=O)N(C)c1c(I)c(C(=O)N(C)CC(O)CO)c(I)c(C(=O)N(C)CC(O)CO)c1I)C(=O)c1c(I)c(NC(=O)CO)c(I)c(C(=O)NCC(O)CO)c1I (stereo not shown) , no commentary.
51,1%

Identify measured % Iodine corresponding to COCC(=O)Nc1c(I)c(C(=O)NCC(O)CO)c(I)c(C(=O)N(C)CC(=O)N(C)c2c(I)c(C(=O)NC(CO)C(O)CO)c(I)c(C(=O)NC(CO)C(O)CO)c2I)c1I (stereo not shown)
49,6%

Given COCC(=O)Nc1c(I)c(C(=O)NCC(O)CO)c(I)c(C(=O)N(CCO)CC(=O)Nc2c(I)c(C(=O)NCCO)c(I)c(C(=O)NCCO)c2I)c1I (stereo not shown) , respond with its % Iodine.
53,2%

Return reported % Iodine. Input molecule: COCC(=O)N(CCO)c1c(I)c(C(=O)NCC(O)CO)c(I)c(C(=O)N(C)CC(=O)N(CCO)c2c(I)c(C(=O)NCC(O)CO)c(I)c(C(=O)NCC(O)CO)c2I)c1I (stereo not shown)
49,1%

For the molecule COCC(=O)Nc1c(I)c(C(=O)NCC(O)CO)c(I)c(C(=O)N(CC(=O)Nc2c(I)c(C(=O)NCC(O)CO)c(I)c(C(=O)NCC(O)CO)c2I)CC(O)CO)c1I (stereo not shown) , give its measured % Iodine value.
50%
